Reported z-score values for a set of compounds
- run_description: A549 lung cancer cell viability effects, profiling panel, resazurin fluorescence, 24 h, PK04 Diversity Set (AID 1171); also: test concentration not given here
- details: higher = more signal, called active from +8 up or from −8 down
property_name: z-score

C=C[C@H](COC(C)=O)NS(=O)(=O)c1ccc(Br)cc1    -0.201
CCOC(=O)C[C@H]1[C@H](OC(=O)c2ccc(-c3ccccc3)cc2)[C@@H](NC(=O)c2ccc3ccccc3n2)c2cc(OCCCO)ccc2N1C(=O)c1ccccc1    0.0216
O=C1NC(=O)C2C1C=CC(C(O)c1ccc3c(c1)OCO3)N2Nc1ccccn1 (stereo not given)    -1.67
C=CCOC(=O)[C@@H]1[C@H]2C(=O)O[C@H](c3ccccc3)[C@H](c3ccccc3)N2[C@H](c2ccc(OCCOC(=O)[C@H]3C[C@H]4C(=O)N[C@@H](CCCC[N+](C)(C)C)C(=O)N4[C@H]3c3ccc(O)cc3)cc2)[C@@]12C(=O)Nc1ccc(I)cc12    -0.173
CC1CC/C=C\[C@H]2OC34C=CCN(C(C)C)C(=O)[C@H]3N(CCCCCO)C(=O)[C@@H]4C2C(=O)O1 (stereo not given in full)    0.98
C=CC1c2cc(O)c(OC)cc2CCN1Cc1sc2ccccc2c1Cl (stereo not given)    -0.784
CN(C)C(=O)[C@]1(CCC(=O)OC(C)(C)C)N=C(c2ccc(OCCCO)cc2)O[C@@H]1c1ccccc1    0.534
O=C1OCC=C[C@H]2OC34C=CCN(Cn5nnc6ccccc65)C(=O)[C@H]3N(CCCCCCO)C(=O)[C@@H]4[C@@H]12 (stereo not given in full)    -0.402
COc1ccc(C(O)C2C=CC3C(=O)N(c4ccccc4)C(=O)C3N2Nc2ccc(C#N)cc2)c2ccccc12 (stereo not given)    0.0226
Cc1ccc(S[C@]2(C(=O)NCc3ccccc3)CC(=O)N(C(C)C)[C@@H]2c2ccc(CO)cc2I)cc1    1.65
O=C1O[C@@H](c2ccccc2)[C@@H](c2ccccc2)N2[C@@H](c3ccccc3OCCO)[C@]3(C(=O)Nc4ccccc43)[C@@H](C(=O)NC[C@H](O)c3ccccc3)[C@H]12    -1.99
COCC(=C=CC[C@H](O)c1cccc(OCCO)c1)C[C@H](O)c1ccccn1    1.22
COCCCNC(=O)[C@]1(Cc2ccccc2CN=[N+]=[N-])N=C(c2ccc(OCCCO)cc2)O[C@@H]1c1ccccc1    0.28
CON(C)C(=O)C=C1C[C@@H](c2cccc(Cl)c2)O[C@@H](c2cccc(Cl)c2)O1    2.23
[N-]=[N+]=Nc1ccccc1C[C@]1(C(=O)NCc2ccccc2)N=C(c2ccc(OCCCO)cc2)O[C@H]1c1ccccc1    -0.395

====

- target_entity: Focal adhesion kinase 1 (Homo sapiens)
- run_description: small-molecule microarray binders of FAK, primary screen, biochemical, 635/667 nm fluorescence, BSA, DTT (AID 1130);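 also: composite of spot emission at 667 nm and signal to noise over triplicate slides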
- details: PTK2 binding, 635 nm fluorescence, higher = more signal
property_name: composite z-score

[N-]=[N+]=Nc1ccccc1C[C@@]1(C(=O)O)N=C(c2ccc(OCCCO)cc2)O[C@@H]1c1ccccc1    0.769
[N-]=[N+]=Nc1ccccc1C[C@]1(C(=O)NCc2ccccc2)N=C(c2ccc(OCCCO)cc2)O[C@H]1c1ccccc1    0.0541
CCOC(=O)C[C@H]1[C@H](OC(=O)c2ccccc2-c2ccccc2)[C@@H](NC(=O)CC(C)C)c2cc(OCCCO)ccc2N1C(=O)c1ccc2ccccc2n1    0.162
O=C(O)[C@]1(Cc2ccccc2)N=C(c2ccc(OCCCO)cc2)O[C@@H]1c1ccccc1    0.136
O=C1OC[C@@H](c2ccccc2)N2CC(/C=C/c3ccccc3)=CC12 (some centres undefined)    -0.542
C=CCOC(=O)[C@@H]1[C@H]2C(=O)O[C@H](c3ccccc3)[C@H](c3ccccc3)N2[C@H](c2ccc(OCCOC(=O)[C@H]3C[C@H]4C(=O)N[C@@H](CC(C)C)C(=O)N4[C@H]3c3ccc(O)cc3)cc2)[C@@]12C(=O)Nc1ccc(I)cc12    0.538
NC(=O)NCC#Cc1ccc2c(c1)[C@]1(C(=O)N2)[C@H](C(=O)Nc2nc3ccccc3s2)[C@H]2C(=O)O[C@H](c3ccccc3)[C@H](c3ccccc3)N2[C@@H]1c1ccc(O)cc1    0.286
CCOC(=O)[C@@H]1[C@@H]2C(=O)N(CC)C(=O)[C@@H]2C[C@@H]1Sc1ccccc1    0.592
COc1ccc(NN2C(C(O)c3ccccn3)C=CC3C(=O)N(C4CCCCC4)C(=O)C32)cc1 (centres undefined)    0.342
CC(C)CN1C(=O)[C@@]2(Cc3ccccc31)c1ccccc1C(=O)N(Cc1ccccc1C(F)(F)F)[C@H]2c1ccc(CO)cc1    -0.315
CCOC(=O)C[C@H]1[C@H](OC(=O)c2ccc(-c3ccccc3)cc2)[C@@H](NC(=O)C2CCCCC2)c2cc(OCCCO)ccc2N1C(=O)c1ccccc1    0.559
COCCCNC(=O)[C@]1(Cc2ccccc2N=[N+]=[N-])N=C(c2ccc(OCCCO)cc2)O[C@@H]1c1ccccc1N=[N+]=[N-]    0.356
Cc1c(NC(=O)/C(C#N)=C/C=C/c2ccccc2[N+](=O)[O-])c(=O)n(-c2ccccc2)n1C    1.01
CC1CC/C=C\[C@H]2OC34C=CCN(C(C)C)C(=O)[C@H]3N(CCCCCO)C(=O)[C@@H]4C2C(=O)O1 (some centres undefined)    -0.6

====

- run_description: HepG2 cell viability effects, profiling panel, calcein-AM fluorescence, 48 h, basal (AID 1164); also: test concentration not given here
- details: higher = more signal
property_name: z-score

C=C(/C(=C/C[C@@H](OC(=O)c1ccncc1)c1ccc(OCCO)cc1)c1cc(C(=O)OC)ccc1OC)C(C)C    0.391
COC(=O)[C@@]1(Cc2ccc(OC)cc2)[C@H]2c3cc(C(=O)N4CCCC4)n(CCc4cc5ccccc5[nH]4)c3C[C@H]2CN1C(=O)c1ccccc1    0.471
COCCOC(=O)N1C(=O)[C@@]2(c3cc(C#CC4(O)CCCCCC4)ccc31)[C@H](c1ccccc1OCCO)N1[C@H](c3ccccc3)[C@H](c3ccccc3)OC(=O)[C@H]1[C@@H]2C(N)=O    -4.78
COc1ccc([Si](C)(C)[C@H]2[C@H](CCn3cc([C@H](O)c4ccccc4)nn3)O[C@@]3(C(=O)N(Cc4cccc(N5C(=O)c6cccc7cccc5c67)c4)c4ccccc43)[C@@H]2C)cc1    -0.506
C[C@@H](OCc1ccccc1)C1NC(=O)[C@@]23C(=O)N[C@@H](Cc4ccccc4)C2[C@H](C)[C@@]2(C)O[C@H]2C3/C=C/C/C=C\CNC(=O)CNC1=O (stereo partly specified)    -0.762
C=CC[C@@H](OC(=O)Nc1ccc(OC)cc1)c1ccc(OCCO)cc1    0.587

====

- target_entity: Fibroblast growth factor 10 (Homo sapiens)
- run_description: FGF10 binders on small-molecule microarrays, primary screen, biochemical, small-molecule microarray, 635 nm fluorescence (AID 1102)
- details: FGF10 binding, fluorescence 635 nm, higher = more signal
Rule: 1 for composite z-score not less than 0.3, -1 for anything less.

COc1ccc(CCNC(=O)[C@@]2(Sc3ccc(C)cc3)CC(=O)N(Cc3cc(C(F)(F)F)cc(C(F)(F)F)c3)[C@@H]2c2ccc(CO)cc2I)cc1    -1
CCOc1cc(C(O)C2C=CC3C(=O)N(C4CCCCC4)C(=O)C3N2Nc2ccc(OC)cc2)ccc1O (configuration not stated)    1
CO[C@H]1O[C@H](CO)[C@@H](OC(=O)c2ccc(Br)cc2)[C@@H]2OC(=O)[C@@H](Cc3ccc4ccccc4c3)C/C=C/C[C@H](Cc3ccc4ccccc4c3)C(=O)O[C@@H]12    1
[N-]=[N+]=Nc1ccccc1C[C@@]1(C(=O)O)N=C(c2ccc(OCCCO)cc2)O[C@@H]1c1ccccc1    -1
C[C@]12C(=O)N(CCCCCCO)[C@@H]3C(=O)N(c4ccc(Cl)cc4)CC=CC31O[C@@H]1/C=C\CCCOC(=O)C12 (some centres not stated)    -1
COC(=O)[C@@]1(Cc2ccc(OC)cc2)[C@H]2c3cc(C(=O)N(C)C)n(Cc4nc5ccccc5[nH]4)c3C[C@H]2CN1C(=O)c1ccccc1    1
CCCN1C(=O)[C@]2(Cc3ccccc3)N=C(c3ccc(OCCCO)cc3)O[C@@H]2c2ccccc21    1
C=C(COC)/C(=C/C[C@@H](OC(=O)c1ccncc1)c1cccc(OCCO)c1)c1cnc2ccccc2c1    1
C=CC1c2cc(O)c(OC)cc2CCN1Cc1sc2ccccc2c1Cl (configuration not stated)    1
COCCOC(=O)N1C(=O)[C@@]2(c3cc(C#Cc4ccc(OC)cc4)ccc31)[C@H](C(=O)N1CCN(c3ncccn3)CC1)[C@H]1C(=O)O[C@H](c3ccccc3)[C@H](c3ccccc3)N1[C@@H]2c1ccccc1OCCO    1
C=CC[C@H](OC(=O)Nc1ccc(OC)cc1)c1ccc(O)c2ccccc12    1
C=CCN1C(=O)[C@@]2(O[C@@H](CCn3cc([C@H](O)c4ccccc4)nn3)[C@H]([Si](C)(C)c3ccc(OC)cc3)[C@H]2C)c2ccccc21    1
CC(C)N1CC=CC23O[C@@H]4C=CCCOC(=O)C4[C@H]2C(=O)N(CCO)[C@@H]3C1=O (some centres not stated)    -1
C[N+](C)(C)CCCC[C@@H]1NC(=O)[C@@H]2C[C@H](C(=O)O)[C@H](c3ccc(O)cc3)N2C1=O    -1
O=C1OC[C@@H](c2ccccc2)N2CC(/C=C/c3ccccc3)=CC12 (some centres not stated)    -1
CN1C(=O)[C@@]2(CCS(=O)(=O)c3ccccc3)N=C(c3ccc(OCCCO)cc3)O[C@H]2c2ccccc21    1
COCCOC(=O)N1C(=O)[C@@]2(c3cc(C#Cc4ccc(OC)cc4)ccc31)[C@H](C(=O)N1CCCCCCC1)[C@H]1C(=O)O[C@H](c3ccccc3)[C@H](c3ccccc3)N1[C@@H]2c1ccc(O)cc1    1
C=CCNC(=O)[C@H]1[C@@H]2C(=O)O[C@@H](c3ccccc3)[C@@H](c3ccccc3)N2[C@@H](c2ccccc2OCCO)[C@]12C(=O)N(C(=O)OCCOC)c1ccc(C#CC3=CCCCC3)cc12    1
C=CCOC(=O)[C@H]1[C@@H]2C(=O)O[C@@H](c3ccccc3)[C@@H](c3ccccc3)N2[C@@H](c2ccc(OCCOC(=O)[C@H]3C[C@H]4C(=O)N[C@@H](Cc5ccccc5)C(=O)N4[C@H]3c3ccc(O)cc3)cc2)[C@]12C(=O)Nc1ccc(I)cc12    1
CN(C)C(=O)[C@@]1(Cc2ccccc2N=[N+]=[N-])COC(c2ccc(OCCCO)cc2)=N1    1
C=CC[C@@H](OC(=O)Nc1ccc(OC)cc1)c1ccc(OCCO)cc1    -1
O=C1O[C@@H](c2ccccc2)[C@@H](c2ccccc2)N2[C@@H](c3ccccc3OCCO)[C@]3(C(=O)Nc4ccccc43)[C@@H](C(=O)NC[C@H](O)c3ccccc3)[C@H]12    -1
CCOC(=O)C[C@H]1[C@H](OC(=O)Cc2ccc3c(c2)OCO3)[C@@H](NC(=O)Cc2ccc(OC)cc2)c2cc(OCCCO)ccc2N1C(=O)c1ccccc1    1
COCCOC(=O)N1C(=O)[C@@]2(c3cc(C#CCC(C(=O)OC)C(=O)OC)ccc31)[C@H](c1ccc(OCCO)cc1)N1[C@H](c3ccccc3)[C@H](c3ccccc3)OC(=O)[C@H]1[C@@H]2C(=O)N1CCN(c2ncccn2)CC1    1
CC1CC/C=C\[C@H]2OC34C=CCN(c5ccc6ccccc6c5)C(=O)[C@H]3N(C(CO)C(C)C)C(=O)[C@@H]4C2C(=O)O1 (some centres not stated)    -1
CC=CC(O)C1C=CC2C(=O)N(C)C(=O)C2N1Nc1ccc([N+](=O)[O-])cc1[N+](=O)[O-] (configuration not stated)    -1
COC(=O)[C@@]1(Cc2ccccc2)[C@H]2c3cc(C(=O)N4CCCC4)n(Cc4cc(F)cc5c4OCOC5)c3C[C@H]2CN1C(=O)c1ccccc1    1
